assay: Metabolic stability in human hepatocytes; type: in vitro ADME; details: human hepatocytes, hepatic intrinsic clearance; read-out: hu CLint
MEASUREMENT TYPE: CLint scaled (mL/min/kg)
# output: bare number, implied unit mL/min/kg

[in] Any idea what CLint scaled was measured for NC(=O)c1ccc(C(=O)Nc2ccc(O)cc2O)nc1 [Compound 3] ?
[out] 83

----------
molecular target: SIRT1 (Homo sapiens, UniProt Q96EB6)
Sequence (Q96EB6 whole entry): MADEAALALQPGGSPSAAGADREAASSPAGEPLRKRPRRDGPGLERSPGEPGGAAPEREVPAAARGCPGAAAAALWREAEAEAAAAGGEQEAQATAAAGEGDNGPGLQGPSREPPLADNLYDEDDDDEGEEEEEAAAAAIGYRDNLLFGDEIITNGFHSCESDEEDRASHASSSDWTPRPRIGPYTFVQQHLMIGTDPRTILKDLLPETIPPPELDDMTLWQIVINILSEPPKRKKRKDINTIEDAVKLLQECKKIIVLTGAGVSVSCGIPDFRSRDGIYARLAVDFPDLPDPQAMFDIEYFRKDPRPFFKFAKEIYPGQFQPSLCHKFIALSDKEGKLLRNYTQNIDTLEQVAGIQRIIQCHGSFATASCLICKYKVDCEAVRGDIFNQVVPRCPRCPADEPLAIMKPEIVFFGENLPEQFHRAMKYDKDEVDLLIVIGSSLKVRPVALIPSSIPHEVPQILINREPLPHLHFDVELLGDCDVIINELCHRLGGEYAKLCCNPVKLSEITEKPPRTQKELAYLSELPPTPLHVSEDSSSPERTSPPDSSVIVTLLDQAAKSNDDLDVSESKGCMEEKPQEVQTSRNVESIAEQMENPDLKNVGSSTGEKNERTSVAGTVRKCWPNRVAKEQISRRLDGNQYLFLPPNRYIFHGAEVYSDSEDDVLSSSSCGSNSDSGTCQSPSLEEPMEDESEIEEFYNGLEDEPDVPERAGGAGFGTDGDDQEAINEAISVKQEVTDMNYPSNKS
MEASUREMENT TYPE: pIC50
// pIC50 is dimensionless: -log10 of concentration (M)

[in] // lookup pIC50 | system=SIRT1 (Homo sapiens, UniProt Q96EB6) | key= NC(=O)c1cc(C(=O)Nc2ccccc2O)c[nH]1
[out] 6.30
